System: S. aureus ATCC 25923
Experiment: Neutropenic murine thigh infection model
Conditions: 1 mg/kg single intraperitoneal dose; 24 h time kill
readout: AUCc-t (AUC difference between control and treated animals)

Task item: Value wanted: AUCc-t (AUC difference between control and treated animals) (S. aureus ATCC 25923) of entry CNC(CC(C)C)C(=O)NC1C(=O)NC(CC(N)=O)C(=O)NC2C(=O)NC3C(=O)NC(C(=O)NC(C(=O)NCCOCCOCCN)c4cc(O)cc(O)c4-c4cc3ccc4O)C(O)c3ccc(c(Cl)c3)Oc3cc2cc(c3OC2OC(CO)C(O)C(O)C2OC2CC(C)(NCc3ccc(-c4ccc(Cl)cc4)cc3)C(O)C(C)O2)Oc2ccc(cc2Cl)C1O (stereo not drawn)
Reply: 7.4 (Log10 CFU/thigh)/hr

Task item: Value wanted: AUCc-t (AUC difference between control and treated animals) (S. aureus ATCC 25923) of entry CNC(CC(C)C)C(=O)NC1C(=O)NC(CC(N)=O)C(=O)NC2C(=O)NC3C(=O)NC(C(=O)NC(C(=O)NCCOCCOCCN(C)C)c4cc(O)cc(O)c4-c4cc3ccc4O)C(O)c3ccc(c(Cl)c3)Oc3cc2cc(c3OC2OC(CO)C(O)C(O)C2OC2CC(C)(NCc3ccc(-c4ccc(Cl)cc4)cc3)C(O)C(C)O2)Oc2ccc(cc2Cl)C1O (stereo not drawn)
Reply: 10.7 (Log10 CFU/thigh)/hr

Task item: Value wanted: AUCc-t (AUC difference between control and treated animals) (S. aureus ATCC 25923) of entry CNC(CC(C)C)C(=O)NC1C(=O)NC(CC(N)=O)C(=O)NC2C(=O)NC3C(=O)NC(C(=O)NC(C(=O)O)c4cc(O)c(CNCCOCCOCC[N+](C)(C)C)c(O)c4-c4cc3ccc4O)C(O)c3ccc(c(Cl)c3)Oc3cc2cc(c3OC2OC(CO)C(O)C(O)C2OC2CC(C)(NCc3ccc(-c4ccc(Cl)cc4)cc3)C(O)C(C)O2)Oc2ccc(cc2Cl)C1O (stereo not drawn)
Reply: 12.6 (Log10 CFU/thigh)/hr

* * *

Test system: S. aureus ATCC 25923
Experiment: Neutropenic murine thigh infection model
Settings: 1 mg/kg single intraperitoneal dose
Could you please report measured Max Kill (maximum decrease from initial infection level) for the items listed next?
Please make sure the unit comes right after the number.

Task item: State the recorded Max Kill (maximum decrease from initial infection level) for this entry: CNC(CC(C)C)C(=O)NC1C(=O)NC(CC(N)=O)C(=O)NC2C(=O)NC3C(=O)NC(C(=O)NC(C(=O)O)c4cc(O)c(CNCCOCCOCCN)c(O)c4-c4cc3ccc4O)C(O)c3ccc(c(Cl)c3)Oc3cc2cc(c3OC2OC(CO)C(O)C(O)C2OC2CC(C)(NCc3ccc(OCc4ccc(Cl)c(Cl)c4)cc3)C(O)C(C)O2)Oc2ccc(cc2Cl)C1O (centres unmarked)
Reply: 0.61 Log10 CFU/thigh

Task item: State the recorded Max Kill (maximum decrease from initial infection level) for this entry: CNC(CC(C)C)C(=O)NC1C(=O)NC(CC(N)=O)C(=O)NC2C(=O)NC3C(=O)NC(C(=O)NC(C(=O)O)c4cc(O)c(CNCCOCCOCC[N+](C)(C)C)c(O)c4-c4cc3ccc4O)C(O)c3ccc(c(Cl)c3)Oc3cc2cc(c3OC2OC(CO)C(O)C(O)C2OC2CC(C)(NCc3ccc(OCc4ccc(Cl)c(Cl)c4)cc3)C(O)C(C)O2)Oc2ccc(cc2Cl)C1O (centres unmarked)
Reply: 0.08 Log10 CFU/thigh

Task item: State the recorded Max Kill (maximum decrease from initial infection level) for this entry: CCCCCCCCCCNCCNC1(C)CC(OC2C(Oc3c4cc5cc3Oc3ccc(cc3Cl)C(O)C3NC(=O)C(NC(=O)C5NC(=O)C(CC(N)=O)NC(=O)C(NC(=O)C(CC(C)C)NC)C(O)c5ccc(c(Cl)c5)O4)c4ccc(O)c(c4)-c4c(cc(O)c(CNCCOCCOCCN)c4O)C(C(=O)O)NC3=O)OC(CO)C(O)C2O)OC(C)C1O (centres unmarked)
Reply: −0.2 Log10 CFU/thigh

Task item: State the recorded Max Kill (maximum decrease from initial infection level) for this entry: CNC(CC(C)C)C(=O)NC1C(=O)NC(CC(N)=O)C(=O)NC2C(=O)NC3C(=O)NC(C(=O)NC(C(=O)NCCOCCOCCN)c4cc(O)cc(O)c4-c4cc3ccc4O)C(O)c3ccc(c(Cl)c3)Oc3cc2cc(c3OC2OC(CO)C(O)C(O)C2OC2CC(C)(NCc3ccc(-c4ccc(Cl)cc4)cc3)C(O)C(C)O2)Oc2ccc(cc2Cl)C1O (centres unmarked)
Reply: 0.98 Log10 CFU/thigh

Task item: State the recorded Max Kill (maximum decrease from initial infection level) for this entry: CCCCCCCCCCNCCNC1(C)CC(OC2C(Oc3c4cc5cc3Oc3ccc(cc3Cl)C(O)C3NC(=O)C(NC(=O)C5NC(=O)C(CC(N)=O)NC(=O)C(NC(=O)C(CC(C)C)NC)C(O)c5ccc(c(Cl)c5)O4)c4ccc(O)c(c4)-c4c(cc(O)c(CNCCOCCOCC[N+](C)(C)C)c4O)C(C(=O)O)NC3=O)OC(CO)C(O)C2O)OC(C)C1O (centres unmarked)
Reply: 0.15 Log10 CFU/thigh

Task item: State the recorded Max Kill (maximum decrease from initial infection level) for this entry: CNC(CC(C)C)C(=O)NC1C(=O)NC(CC(N)=O)C(=O)NC2C(=O)NC3C(=O)NC(C(=O)NC(C(=O)O)c4cc(O)c(CNCCOCCOCC[N+](C)(C)C)c(O)c4-c4cc3ccc4O)C(O)c3ccc(c(Cl)c3)Oc3cc2cc(c3OC2OC(CO)C(O)C(O)C2OC2CC(C)(NCc3ccc(-c4ccc(Cl)cc4)cc3)C(O)C(C)O2)Oc2ccc(cc2Cl)C1O (centres unmarked)
Reply: 0.9 Log10 CFU/thigh

Task item: State the recorded Max Kill (maximum decrease from initial infection level) for this entry: CNC(CC(C)C)C(=O)NC1C(=O)NC(CC(N)=O)C(=O)NC2C(=O)NC3C(=O)NC(C(=O)NC(C(=O)O)c4cc(O)c(CNCCOCCOCCN(C)C)c(O)c4-c4cc3ccc4O)C(O)c3ccc(c(Cl)c3)Oc3cc2cc(c3OC2OC(CO)C(O)C(O)C2OC2CC(C)(NCc3ccc(-c4ccc(Cl)cc4)cc3)C(O)C(C)O2)Oc2ccc(cc2Cl)C1O (centres unmarked)
Reply: 1.1 Log10 CFU/thigh

Task item: State the recorded Max Kill (maximum decrease from initial infection level) for this entry: CCCCCCCCCCNCCNC1(C)CC(OC2C(Oc3c4cc5cc3Oc3ccc(cc3Cl)C(O)C3NC(=O)C(NC(=O)C5NC(=O)C(CC(N)=O)NC(=O)C(NC(=O)C(CC(C)C)NC)C(O)c5ccc(c(Cl)c5)O4)c4ccc(O)c(c4)-c4c(O)cc(O)cc4C(C(=O)NCCOCCOCCN)NC3=O)OC(CO)C(O)C2O)OC(C)C1O (centres unmarked)
Reply: −0.28 Log10 CFU/thigh
